Molecular target: T1, murine CD19 protein (murine, UniProt P25918 17-287, limits assumed)
T1 construct: bought protein; also called commercial murine CD19
T1 sequence (looked up): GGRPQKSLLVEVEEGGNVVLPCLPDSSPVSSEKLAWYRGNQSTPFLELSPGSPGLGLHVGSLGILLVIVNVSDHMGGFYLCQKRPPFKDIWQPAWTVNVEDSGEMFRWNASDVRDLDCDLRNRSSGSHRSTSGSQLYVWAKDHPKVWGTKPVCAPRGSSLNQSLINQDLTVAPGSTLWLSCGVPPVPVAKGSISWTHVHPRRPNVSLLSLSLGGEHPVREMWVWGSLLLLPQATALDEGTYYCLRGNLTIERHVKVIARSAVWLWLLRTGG
Assay: ELISA
ASSAY_ENDPOINT: binding result

## Task Using the record for F3.121.4-L1H1 (antibody, mouse IgG1, kappa, V domains shown, murine IgG1 constant regions; also called humanized antibody of F3.121.4) VH: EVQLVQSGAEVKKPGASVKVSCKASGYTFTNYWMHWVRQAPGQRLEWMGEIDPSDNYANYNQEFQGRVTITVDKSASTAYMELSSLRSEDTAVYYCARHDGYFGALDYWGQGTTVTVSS VL: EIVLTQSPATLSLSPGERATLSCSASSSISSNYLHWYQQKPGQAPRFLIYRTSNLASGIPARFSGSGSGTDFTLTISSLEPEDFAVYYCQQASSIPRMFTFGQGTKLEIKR , report its binding result.
## Result no binding

## Task Same for F3.121.4-L1H2 (antibody, mouse IgG1, kappa, V domains shown, murine IgG1 constant regions; also called humanized antibody of F3.121.4) VH: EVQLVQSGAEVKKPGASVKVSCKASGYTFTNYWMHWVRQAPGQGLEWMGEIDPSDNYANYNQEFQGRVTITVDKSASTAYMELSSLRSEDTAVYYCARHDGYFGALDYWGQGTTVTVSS VL: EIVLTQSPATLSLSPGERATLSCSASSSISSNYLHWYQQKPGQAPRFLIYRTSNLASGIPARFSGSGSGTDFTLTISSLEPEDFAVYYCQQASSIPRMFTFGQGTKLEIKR
## Result no binding

## Task Same for F3.121.4-L3H1 (antibody, mouse IgG1, kappa, V domains shown, murine IgG1 constant regions; also called humanized antibody of F3.121.4) VH: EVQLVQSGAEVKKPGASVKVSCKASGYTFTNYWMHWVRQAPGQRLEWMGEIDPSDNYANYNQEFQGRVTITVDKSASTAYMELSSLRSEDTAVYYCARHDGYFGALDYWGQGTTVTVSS VL: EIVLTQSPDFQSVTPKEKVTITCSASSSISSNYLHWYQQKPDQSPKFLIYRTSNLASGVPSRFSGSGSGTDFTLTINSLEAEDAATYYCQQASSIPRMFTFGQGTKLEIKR
## Result no binding
